Hey, just so you know, these numbers are from ChEMBL document CHEMBL1143812.

- Test system: Human immunodeficiency virus 1
- protocol_summary: Antiviral activity against HIV1 MDR/G X4 in phytohemagglutininin-activated PBMCs assessed as inhibition of p24 Gag protein expression by MTT assay
- Assay type: functional, organism-based
// boundary case: EC50 equal to 30 nM maps to condition not met; strictly smaller maps to condition met

CC(C)CN(C[C@@H](O)[C@H](Cc1ccccc1)NC(=O)O[C@H]1CO[C@H]2OCC[C@H]21)S(=O)(=O)c1ccc(N)cc1 :: condition met
COC(=O)N[C@H](C(=O)N[C@@H](Cc1ccccc1)[C@@H](O)CN(Cc1ccc(-c2ccccn2)cc1)NC(=O)[C@@H](NC(=O)OC)C(C)(C)C)C(C)(C)C :: condition not met
CC(C)CN(C[C@@H](O)[C@H](Cc1ccccc1)NC(=O)O[C@H]1CO[C@H]2OCC[C@H]21)S(=O)(=O)c1ccc2c(c1)OCO2 :: condition met
CC(C)(C)NC(=O)[C@@H]1CN(Cc2cccnc2)CCN1C[C@@H](O)C[C@@H](Cc1ccccc1)C(=O)N[C@H]1c2ccccc2C[C@H]1O :: condition not met

Continue with the next compound.
I'd appreciate it if you could check whether `CC(C)(C)NC(=O)[C@@H]1C[C@@H]2CCCC[C@@H]2CN1C[C@@H](O)[C@H](Cc1ccccc1)NC(=O)[C@H](CC(N)=O)NC(=O)c1ccc2ccccc2n1` has EC50 smaller than 30 nM.
condition not met

---

- Test system: Human immunodeficiency virus 1
- protocol_summary: Antiviral activity against HIV1 MDR/C X4 in phytohemagglutininin-activated PBMCs assessed as inhibition of p24 Gag protein expression by MTT assay
- Format: functional, organism-based
measured_endpoint: EC50 (µM)
Just the number please, in µM, no unit attached.

# annotated cases, reported EC50 shown
COC(=O)N[C@H](C(=O)N[C@@H](Cc1ccccc1)[C@@H](O)CN(Cc1ccc(-c2ccccn2)cc1)NC(=O)[C@@H](NC(=O)OC)C(C)(C)C)C(C)(C)C [ATAZANAVIR] :: 0.021
CC(C)(C)NC(=O)[C@@H]1C[C@@H]2CCCC[C@@H]2CN1C[C@@H](O)[C@H](Cc1ccccc1)NC(=O)[C@H](CC(N)=O)NC(=O)c1ccc2ccccc2n1 :: 0.035
CC(C)CN(C[C@@H](O)[C@H](Cc1ccccc1)NC(=O)O[C@H]1CO[C@H]2OCC[C@H]21)S(=O)(=O)c1ccc(N)cc1 :: 0.009

Now let's try a different one.
Write down the reported EC50 of `CC(C)CN(C[C@@H](O)[C@H](Cc1ccccc1)NC(=O)O[C@H]1CO[C@H]2OCC[C@H]21)S(=O)(=O)c1ccc2c(c1)OCO2` , test system: Human immunodeficiency virus 1.
0.0027

---

- System: Human immunodeficiency virus 1
- protocol_summary: Antiviral activity against HIV1 92TH019 R5 subtype E in phytohemagglutininin-activated PBMCs assessed as inhibition of p24 Gag protein expression by MTT assay
- Type: functional, organism-based
measured_endpoint: EC50
Kindly format the answer as number then unit.

# annotated cases, reported EC50 shown
COC(=O)N[C@H](C(=O)N[C@@H](Cc1ccccc1)[C@@H](O)CN(Cc1ccc(-c2ccccn2)cc1)NC(=O)[C@@H](NC(=O)OC)C(C)(C)C)C(C)(C)C :: 2.7 nM
Cc1c(O)cccc1C(=O)N[C@@H](CSc1ccccc1)[C@H](O)CN1C[C@H]2CCCC[C@H]2C[C@H]1C(=O)NC(C)(C)C :: 29 nM
CC(C)CN(C[C@@H](O)[C@H](Cc1ccccc1)NC(=O)O[C@H]1CCOC1)S(=O)(=O)c1ccc(N)cc1 :: 21 nM
Cc1cccc(C)c1OCC(=O)N[C@@H](Cc1ccccc1)[C@@H](O)C[C@H](Cc1ccccc1)NC(=O)[C@H](C(C)C)N1CCCNC1=O :: 3.3 nM
CC(C)c1nc(CN(C)C(=O)N[C@H](C(=O)N[C@@H](Cc2ccccc2)C[C@H](O)[C@H](Cc2ccccc2)NC(=O)OCc2cncs2)C(C)C)cs1 :: 30 nM
CC(C)(C)NC(=O)[C@@H]1C[C@@H]2CCCC[C@@H]2CN1C[C@@H](O)[C@H](Cc1ccccc1)NC(=O)[C@H](CC(N)=O)NC(=O)c1ccc2ccccc2n1 :: 3 nM
CC(C)(C)NC(=O)[C@@H]1CN(Cc2cccnc2)CCN1C[C@@H](O)C[C@@H](Cc1ccccc1)C(=O)N[C@H]1c2ccccc2C[C@H]1O :: 21 nM

Would you mind telling me what EC50 value was observed for `CC(C)CN(C[C@@H](O)[C@H](Cc1ccccc1)NC(=O)O[C@H]1CO[C@H]2OCC[C@H]21)S(=O)(=O)c1ccc2c(c1)OCO2` ?
0.3 nM
